Data origin: ChEMBL document CHEMBL2390840

Molecular target: Muscarinic acetylcholine receptor M4 (Homo sapiens)
Sequence (P08173 whole entry): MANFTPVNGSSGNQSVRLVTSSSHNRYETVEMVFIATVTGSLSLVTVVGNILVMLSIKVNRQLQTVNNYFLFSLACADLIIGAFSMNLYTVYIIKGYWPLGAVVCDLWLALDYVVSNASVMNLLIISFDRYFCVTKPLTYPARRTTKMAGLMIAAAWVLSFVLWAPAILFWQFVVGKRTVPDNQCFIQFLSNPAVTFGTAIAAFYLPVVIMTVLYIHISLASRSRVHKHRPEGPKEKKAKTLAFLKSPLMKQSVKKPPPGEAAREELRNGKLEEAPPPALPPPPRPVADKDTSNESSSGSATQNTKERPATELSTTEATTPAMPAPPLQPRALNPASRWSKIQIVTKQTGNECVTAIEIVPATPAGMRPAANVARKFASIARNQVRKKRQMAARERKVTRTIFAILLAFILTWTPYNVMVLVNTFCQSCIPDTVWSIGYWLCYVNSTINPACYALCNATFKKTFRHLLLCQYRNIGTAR
Test: Displacement of [3H]QNB from human recombinant muscarinic M4 receptor expressed in CHO cells after 1 to […] by scintillation counting analysis
observable: Ki

{"columns": ["compound", "measured"],
 "data": [
  ["C=CCN(CC=C)CCc1c[nH]c2ccc(OC)cc12", "> 10 µM"],
  ["CC(N)Cc1c[nH]c2ccccc12 (configuration not stated)", "> 10 µM"]
]}
